Source listed as patent US20150030595A1.

# Target of assay: DLK1-Fc fusion protein (human)
# Sequence (chain, as listed by the source limits assumed, form in doubt): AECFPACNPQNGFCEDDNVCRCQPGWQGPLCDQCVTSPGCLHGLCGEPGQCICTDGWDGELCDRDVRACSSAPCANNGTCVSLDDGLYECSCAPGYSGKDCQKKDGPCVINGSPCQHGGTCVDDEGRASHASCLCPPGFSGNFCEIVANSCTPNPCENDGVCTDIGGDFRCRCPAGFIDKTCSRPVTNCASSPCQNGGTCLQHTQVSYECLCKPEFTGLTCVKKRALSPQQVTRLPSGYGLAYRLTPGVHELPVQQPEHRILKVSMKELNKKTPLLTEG
# Test method notes: phage ELISA; OD on DLK1 divided by OD on a-myc
Tick YES if Ratio is 5 or greater. Tick NO if Ratio is less than 5.

Given the entry DLK1 B09 (monoclonal scFv-phage) (scFv, V domains shown) VH: QMQLVESGGRLVRPGGSLRLSCAASGFPFTSYAMNWVRQTPGKGLEWVSTITATSGKTYYADSVKGRFTISRDNSRNTLFLQMNSLRAEDTAVYYCVRGESCSGGACSDFDYWGQGALVTVSS VL: QLVLTQPASVSGSPGQSVTISCTGTSSDIGRYNRVSWYQHHPGKAPKLILNDVTTRPSGFSNRFSGSKSGNTASLTISGLQAEDEADYSCGSYAGSYTYVFGTGTKVTVL , answer whether its Ratio meets or surpasses 5.
YES

Is it the case that DLK1 A04 (monoclonal scFv-phage) (scFv, V domains shown) VH: QVQLVESGAEVKKPGASVKVSCKASGYTFKDYAIHWVRQAPGQRLEWMGWINPGSGNTKYSHNFEGRVILTRDASANTAYLELPSLRSEDTAVYYCARSVSAYGSNYFDPWGQGTLITVSS VL: DIQMTQSPSSLSASVGDRVTITCQASQDISNYLNWYQQKPGKAPKLLIYSTSNLQSGVPSRFSGSGSGTDFTLTISSLQPEDFATYYCQQLNSYPLTFGGGTKVDIK has Ratio reaching or exceeding 5?
YES

# check: Ratio of DLK1 A10 (monoclonal scFv-phage) (scFv, V domains shown) VH: QVQLVESGGGLVQPGRSLRLSCAASGFTFDDYAMHWVRQAPGKGLEWVSGISWNSGSIGYADSVKGRFTISRDNAKNSLYLQMNSLRAEDTAVYYCARGPGLATGKGYADYWGQGTLVTVSS VL: DIQMTQSPSSVSASVGDRVTITCRASQRISSWLAWYQQKPGRAPKLLIHSASTLHNGVPSRFSGSASGTDFTLTISSLQPEDYAIYYCQQGHSFPYTFGQGTKLEIK is greater than or equal to 5
NO

Hi team, for DLK1 A05 (monoclonal scFv-phage) (scFv, V domains shown) VH: QMQLVESGGGLVQPGRSLRLSCAASGFTFDEHAMHWVRQAPGKGLEWVSGINWNSGKTGYADSVKGRFTISRDNGKNSLYLQMNSLRAEDTAVYYCAKSGGYGGNTNWYFDLWGRGTLVTVSS VL: QFVLTQPPSVSGAPGQNVTISCIGTSSNIGVGYDVHWYQQVPGTAPKLLVYGNNNRPSGVPDRFSGSKSGTSASLAITGLQAEDEADYYCQSYDSRLGVVFGGGTKLTVL , is the recorded Ratio at or above 5?
NO

Item DLK1 H12 (monoclonal scFv-phage) (scFv, V domains shown) VH: QVQLVQSGGGLVKPGGSLRLSCAASEFTFSDYYMSWVRQAPGKGLEWLSYISGSGITTYYADSVKGRFTISRDNGKKSLYLEMNSLRAEDTAVYYCARLQGHCSGGACSNWFDAWGQGTLITVSS VL: DIQMTQSPSSLSASVGDRLTITCRASQSILTYLNWYQQKPGKAPKLLIYAASSLQRGVPSRFSGSGSGTDFTLTISGLQPEDFATYYCQQGYGTPYTFGQGTKVDIK with Ratio of 5 or above?
NO

Determine whether measured Ratio meets or exceeds 5 for DLK1 H06 (monoclonal scFv-phage) (scFv, V domains shown) VH: QVQLVQSGGGLIQPGGSLRLSCAASGFTFSLYGMSWVRQAPGKGLEWVSSIPGSGTRTHYADSVKGRFTISRDNSKNTLFLQMNSLRAEDTAVYYCAKSTAYLFDYWGPGTLVTVSS VL: DIQMTQSPATLSLSPGERATLSCRASQSIRHYLAWYQQKPGQAPRLLIHGASSRATGIPDRFSGSGSGTDFTLTISRLEPEDFAVYYCQHYGSPLHSFGPGTKVEIK
NO
